What follows is a record of MIC VRE ATCC 700221 for VRE Enterococcus faecium.
Give bare numbers, in µg/mL.

[[record]]
compound = "C=C1NC(=O)[C@H](Cc2c[nH]c3ccccc23)NC(=O)[C@H](NC(=O)[C@H](CCCCN)NC(=O)[C@H](C)N)CSC[C@@H](C(=O)N[C@H]2C(=O)N3CCC[C@H]3C(=O)NCC(=O)N[C@H](C(=O)N[C@@H](C)C(=O)N[C@@H](C)C(=O)NC(=CC)C(=O)NCC(=O)N[C@@H]3CSC[C@@H]4NC(=O)[C@H](Cc5ccc(O)cc5)NC(=O)[C@@H](CS/C=C\\NC4=O)NC(=O)[C@H](CC(N)=O)NC(=O)[C@H](Cc4ccccc4)NC3=O)CS[C@H]2C)NC(=O)[C@H](CC(C)C)NC1=O [F1A R13A]"
measurement_units = "µg/mL"
observed_measurement = 16

[[record]]
compound = "C=C1NC(=O)[C@H](Cc2c[nH]c3ccccc23)NC(=O)[C@H](NC(=O)[C@H](CCCCN)NC(=O)[C@@H](N)[C@@H](C)CC)CSC[C@@H](C(=O)N[C@H]2C(=O)N3CCC[C@H]3C(=O)NCC(=O)N[C@H](C(=O)N[C@@H](C)C(=O)N[C@@H](CC(=O)O)C(=O)NC(=CC)C(=O)NCC(=O)N[C@@H]3CSC[C@@H]4NC(=O)[C@H](Cc5ccc(O)cc5)NC(=O)[C@@H](CS/C=C\\NC4=O)NC(=O)[C@H](CC(N)=O)NC(=O)[C@H](Cc4ccccc4)NC3=O)CS[C@H]2C)NC(=O)[C@H](CC(C)C)NC1=O [F1I R13D]"
measurement_units = "µg/mL"
observed_measurement = 32

[[record]]
compound = "C=C1NC(=O)[C@H](Cc2c[nH]c3ccccc23)NC(=O)[C@H](NC(=O)[C@H](CCCCN)NC(=O)[C@@H](N)[C@@H](C)CC)CSC[C@@H](C(=O)N[C@H]2C(=O)N3CCC[C@H]3C(=O)NCC(=O)N[C@H](C(=O)N[C@@H](C)C(=O)N[C@@H](CC(N)=O)C(=O)NC(=CC)C(=O)NCC(=O)N[C@@H]3CSC[C@@H]4NC(=O)[C@H](Cc5ccccc5)NC(=O)[C@@H](CS/C=C\\NC4=O)NC(=O)[C@H](CC(N)=O)NC(=O)[C@H](Cc4ccccc4)NC3=O)CS[C@H]2C)NC(=O)[C@H](CC(C)C)NC1=O [F1I R13N Y20F]"
measurement_units = "µg/mL"
observed_measurement = 8

[[record]]
compound = "C=C1NC(=O)[C@H](Cc2c[nH]c3ccccc23)NC(=O)[C@H](NC(=O)[C@H](CCCCN)NC(=O)[C@@H](N)[C@@H](C)O)CSC[C@@H](C(=O)N[C@H]2C(=O)N3CCC[C@H]3C(=O)NCC(=O)N[C@H](C(=O)N[C@@H](C)C(=O)NCC(=O)NC(=CC)C(=O)NCC(=O)N[C@@H]3CSC[C@@H]4NC(=O)[C@H](Cc5ccc(O)cc5)NC(=O)[C@@H](CS/C=C\\NC4=O)NC(=O)[C@H](CC(N)=O)NC(=O)[C@H](Cc4ccccc4)NC3=O)CS[C@H]2C)NC(=O)[C@H](CC(C)C)NC1=O [F1T R13G]"
measurement_units = "µg/mL"
observed_measurement = 32

[[record]]
compound = "C=C1NC(=O)[C@H](Cc2c[nH]c3ccccc23)NC(=O)[C@H](NC(=O)[C@H](CCCCN)NC(=O)[C@@H](N)CC(C)C)CSC[C@@H](C(=O)N[C@H]2C(=O)N3CCC[C@H]3C(=O)NCC(=O)N[C@H](C(=O)N[C@@H](C)C(=O)N[C@@H](CC(=O)O)C(=O)NC(=CC)C(=O)NCC(=O)N[C@@H]3CSC[C@@H]4NC(=O)[C@H](Cc5ccc(O)cc5)NC(=O)[C@@H](CS/C=C\\NC4=O)NC(=O)[C@H](CC(N)=O)NC(=O)[C@H](Cc4ccccc4)NC3=O)CS[C@H]2C)NC(=O)[C@H](CC(C)C)NC1=O [F1L R13D]"
measurement_units = "µg/mL"
observed_measurement = 32

[[record]]
compound = "C=C1NC(=O)[C@H](Cc2c[nH]c3ccccc23)NC(=O)[C@H](NC(=O)[C@H](CCCCN)NC(=O)[C@@H](N)C(C)C)CSC[C@@H](C(=O)N[C@H]2C(=O)N3CCC[C@H]3C(=O)NCC(=O)N[C@H](C(=O)N[C@@H](C)C(=O)N[C@@H](CC(N)=O)C(=O)N/C(=C\\C)C(=O)NCC(=O)N[C@@H]3CSC[C@@H]4NC(=O)[C@H](Cc5ccc(O)cc5)NC(=O)[C@@H](CS/C=C\\NC4=O)NC(=O)[C@H](CC(N)=O)NC(=O)[C@H](Cc4ccccc4)NC3=O)CS[C@H]2C)NC(=O)[C@H](CC(C)C)NC1=O [F1V R13N]"
measurement_units = "µg/mL"
observed_measurement = 16


Which MIC VRE ATCC 700221 value belongs to C=C1NC(=O)[C@H](Cc2c[nH]c3ccccc23)NC(=O)[C@H](NC(=O)[C@H](CCCCN)NC(=O)[C@H](C)N)CSC[C@@H](C(=O)N[C@H]2C(=O)N3CCC[C@H]3C(=O)NCC(=O)N[C@H](C(=O)N[C@@H](C)C(=O)NCC(=O)NC(=CC)C(=O)NCC(=O)N[C@@H]3CSC[C@@H]4NC(=O)[C@H](Cc5ccc(O)cc5)NC(=O)[C@@H](CS/C=C\NC4=O)NC(=O)[C@H](CC(N)=O)NC(=O)[C@H](Cc4ccccc4)NC3=O)CS[C@H]2C)NC(=O)[C@H](CC(C)C)NC1=O [F1A R13G] ?
32

Source: patent US20190315814A1
